- METHOD DESCRIPTION: Solubility of CFMQ in vehicles
- Type: physicochemical
- CONDITION PARAMETERS: phosphate buffer, pH 7, aqueous buffer
MEASUREMENT TYPE: solubility

Record summary for Cc1cc(Cl)c(COc2cccc3c(-n4cc(F)cn4)cc(C)nc23)c(Cn2cccc(C#N)c2=O)n1 : reported solubility = < 10 µg/mL

###

- METHOD DESCRIPTION: Solubility of CFMQ in vehicles
- Assay type: physicochemical
- CONDITION PARAMETERS: Labrasol (glyceryl and polyethylene glycol esters), aqueous with cosolvent or surfactant or cyclodextrin
MEASUREMENT TYPE: solubility (µg/mL)
Numeric answer only, unit µg/mL assumed.

Record summary for Cc1cc(Cl)c(COc2cccc3c(-n4cc(F)cn4)cc(C)nc23)c(Cn2cccc(C#N)c2=O)n1 [CFMQ] : reported solubility = 1430
